# maps each entry to its Percent Effect
Target: Shiga toxin 2 (Escherichia coli O157:H7) (UniProt P09385+P09386)
Assay: E. coli 0.157:H7 Shiga Toxin SOP - stx2 screening assay
Assay type: functional
Parameters: scale not given: direction of the effect not stated beside the values
Settings: 30 µM
The reply should be a number in %, with the unit left off.

{"columns": ["compound", "measure-unit", "quantitative-result"],
 "data": [
  ["Cn1nc(C2CCCN(C(=O)Cc3ccsc3)C2)c2nccnc21 (stereo unspecified)", "%", 7.06],
  ["Cc1ccc(N2CCCN(C(=O)c3c(C)oc(C)c3C)CC2)nn1", "%", -1.2],
  ["Cc1cc(N2CCC(N(C)C(=O)c3ccccc3)CC2)nc(C)n1", "%", -9.61],
  ["COc1ccc(CN(C)C(=O)CCc2c(C)nc(C)[nH]c2=O)cc1OC", "%", -6.32],
  ["COCCC(=O)N1CCC2(COCc3cnc(-c4ccccc4)nc32)C1 (stereo unspecified)", "%", -3.09]
]}

Q) What value of measured Percent Effect is listed for CC(=O)N1CCCC(c2ccc(Nc3nc(C)cc(C)n3)cn2)C1 (stereo unspecified) ?
A) 3.11

Q) // Percent Effect lookup, key: CN1CCN(Cc2nnc(C3CCN(CC4CC4)CC3)n2C)CC1
A) 2.65

Q) Fill in the blank: the reported Percent Effect of CC1CN(CC(=O)NC(=O)NCc2ccccc2)CCO1 (stereo unspecified) is ____.
A) -0.513

Q) I am curious: what Percent Effect value has been reported for CC(C)c1nnc2n1CCN(C(=O)c1ccc(-n3cnnc3)cc1)C2 ?
A) -19.9

Q) # lookup: Percent Effect of Cc1noc(C2CCN(Cc3cc(=O)n(C)c(=O)n3C)CC2)n1
A) -1.09

Q) For the compound COC(=O)COc1cccc(NS(=O)(=O)c2cc(C(=O)O)cs2)c1 , what Percent Effect is on record?
A) -53.3

Q) Which Percent Effect reading was recorded for the compound Fc1cccnc1CN1CCCCC1c1ccn2ccnc2n1 (stereo unspecified) ?
A) -17.1

Q) Which Percent Effect is listed for COCC(=O)N1CCC(c2nccnc2Oc2cccnc2C)CC1 ?
A) 6.27
